assayed.target: full length cynomolgus monkey DLL4 (cynomolgus monkey)
assay.notes: FMAT, hybridoma supernatant, 293T cells with cynomolgus DLL4
The entries below are paired with their reported FL1 x count.

- binder: "2H10 (antibody, IgG4, V domains shown) VH: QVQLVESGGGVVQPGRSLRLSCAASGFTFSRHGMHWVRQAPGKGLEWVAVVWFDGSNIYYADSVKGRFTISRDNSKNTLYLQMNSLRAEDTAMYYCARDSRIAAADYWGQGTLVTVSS VL: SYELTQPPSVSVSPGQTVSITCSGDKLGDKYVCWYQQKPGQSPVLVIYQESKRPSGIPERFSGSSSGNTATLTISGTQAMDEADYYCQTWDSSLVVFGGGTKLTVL"
  FL1 x count: "1.35e+06"
- binder: "20G8 (antibody, IgG4, V domains shown) VH: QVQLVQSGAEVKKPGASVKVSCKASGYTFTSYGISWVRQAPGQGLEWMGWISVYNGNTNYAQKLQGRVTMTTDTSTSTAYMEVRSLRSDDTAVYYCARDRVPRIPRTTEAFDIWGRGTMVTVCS VL: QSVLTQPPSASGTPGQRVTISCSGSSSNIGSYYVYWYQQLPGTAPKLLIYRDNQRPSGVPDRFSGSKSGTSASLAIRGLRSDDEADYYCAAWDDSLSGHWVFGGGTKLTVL"
  FL1 x count: "1.44e+06"
- binder: "4B3 (antibody, IgG4, V domains shown) VH: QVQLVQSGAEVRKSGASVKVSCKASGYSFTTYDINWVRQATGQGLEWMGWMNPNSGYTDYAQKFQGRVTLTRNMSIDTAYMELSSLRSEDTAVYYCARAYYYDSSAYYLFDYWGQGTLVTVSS VL: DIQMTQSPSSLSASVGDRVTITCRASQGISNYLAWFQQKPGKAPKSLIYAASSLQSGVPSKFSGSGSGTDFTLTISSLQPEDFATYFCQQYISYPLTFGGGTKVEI"
  FL1 x count: "1.22e+06"
